System: CEM cells HIV-1 protection, formazan growth assay
Experiment: NCI AIDS Antiviral Assay
Conditions: measured here: growth of uninfected CEM cells
pIC50: −log10 of the molar value.
In this section we review reported pIC50 values for a set of molecules.

>  <molecule>
CCCOC(=O)c1cc(C(=CCC[C@H]2CC[C@@]3(C)[C@@H](CC[C@@H]4[C@@H]3CC[C@]3(C)[C@@H](C(C)CCCC(C)C)CC[C@@H]43)C2)c2cc(Cl)c(O)c(C(=O)OCCC)c2)cc(Cl)c1O (some centres undefined)

>  <experimental-system>
CEM cells HIV-1 protection, formazan growth assay

>  <op>
<

>  <pIC50>
3.82

$$$$
>  <molecule>
CCCCOC(=O)CC(C(=O)OCCCC)C(C(=O)OCCCC)P(=O)(OCCCC)OCCCC (centres undefined)

>  <experimental-system>
CEM cells HIV-1 protection, formazan growth assay

>  <op>
=

>  <pIC50>
4.76

$$$$
>  <molecule>
CCCCCCCCC(O)C(O)CCCCCCCC(=O)O (centres undefined)

>  <experimental-system>
CEM cells HIV-1 protection, formazan growth assay

>  <op>
=

>  <pIC50>
4.27

$$$$
>  <molecule>
Cc1cc(=O)[nH]c(CO)n1

>  <experimental-system>
CEM cells HIV-1 protection, formazan growth assay

>  <op>
<

>  <pIC50>
3.70

$$$$
>  <molecule>
CON(C)C(=O)C(C)N(Cc1ccccc1)Cc1ccccc1 (centres undefined)

>  <experimental-system>
CEM cells HIV-1 protection, formazan growth assay

>  <op>
=

>  <pIC50>
4.48

$$$$
>  <molecule>
O=C(O)C1CC(c2ccc(F)cc2)=Nc2ccc(F)cc2S1 (centres undefined)

>  <experimental-system>
CEM cells HIV-1 protection, formazan growth assay

>  <op>
<

>  <pIC50>
3.70

$$$$
>  <molecule>
c1ccc2cc(CNCCCCNCCCNCc3ccc4ccccc4c3)ccc2c1

>  <experimental-system>
CEM cells HIV-1 protection, formazan growth assay

>  <op>
=

>  <pIC50>
6.59

$$$$
>  <molecule>
CC(=O)Oc1c(N2CCCCC2)c(C(=O)c2ccccc2)c(O)c2ccn(N(C)C)c12

>  <experimental-system>
CEM cells HIV-1 protection, formazan growth assay

>  <op>
=

>  <pIC50>
5.08

$$$$
>  <molecule>
NC(CS)C(=O)NCCNCCNc1ccc(NCCNCCNC(=O)C(N)CS)c2c1C(=O)c1c(O)ccc(O)c1C2=O (centres undefined)

>  <experimental-system>
CEM cells HIV-1 protection, formazan growth assay

>  <op>
=

>  <pIC50>
4.87

$$$$

---

System: CEM cells HIV-1 protection, formazan growth assay
Experiment: NCI AIDS Antiviral Assay
pEC50: −log10 of the molar value.
In this section we review reported pEC50 values for a set of compounds.

>  <compound>
CC(=O)OC1(C)C=Cc2ccccc2/C1=N/S(=O)(=O)c1ccccc1 (stereo unspecified)

>  <pEC50>
< 3.70

$$$$
>  <compound>
COC(=O)C1=C(C(=O)OC)C23C=CC=CC24C(C(=O)OC)=C(C(=O)OC)C4C1C3 (stereo unspecified)

>  <pEC50>
< 3.35

$$$$
>  <compound>
CC1(C)C2CCC(O)(C2)C1N (stereo unspecified)

>  <pEC50>
< 3.70

$$$$
>  <compound>
O=C(O)c1c(O)ccc(N=Nc2ccc(/C=C/c3ccc(N=Nc4ccc(O)c(C(=O)O)c4O)cc3S(=O)(=O)O)c(S(=O)(=O)O)c2)c1O

>  <pEC50>
< 4.84

$$$$
>  <compound>
COc1ccc2[nH]cc(CCNC(C)=O)c2c1

>  <pEC50>
< 3.70

$$$$
>  <compound>
COc1c2occc2c(Cl)c2ccc(=O)oc12

>  <pEC50>
< 4.15

$$$$
>  <compound>
C=C=C(CC(CC(=C)Br)(C(=O)OC)C(=O)OC)S(=O)(=O)c1ccccc1

>  <pEC50>
< 3.70

$$$$
>  <compound>
CCOC(=O)/C(=C\c1cccc(Cl)c1)C(C)=O

>  <pEC50>
< 3.85

$$$$
>  <compound>
Cc1cc(S(=O)(=O)Nc2nnc3ccc4ccccc4n23)c(S)cc1Cl

>  <pEC50>
< 3.70

$$$$
>  <compound>
N#C/C(=C\NC(=S)c1ccncc1)c1nc2ccccc2s1

>  <pEC50>
< 3.70

$$$$
>  <compound>
Cc1ccc(S(=O)(=O)C(CC(=O)N2CCCC2)C(=O)c2ccccc2)cc1 (stereo unspecified)

>  <pEC50>
< 4.03

$$$$

---

System: CEM cells HIV-1 protection, formazan growth assay
Test: NCI AIDS Antiviral Assay
Where a SMILES comes first, the peptide text is derived from it. [ ]: non-standard residue; d: D form. The star is where a group is joined. Phe(2-OMe) = COc1ccccc1C[CH](N)C(=O)O; Cbz = O=C(OCc1ccccc1)*; OBn = c1ccc(CO*)cc1

>  <compound>
Clc1ccc(-c2cn3c(nc4ccccc43)c(-c3ccccc3)n2)cc1

>  <EC50>
> 200 µM

$$$$
>  <compound>
COc1ccc2c(c1)c1c(n2CCN(C)C)-c2cccc(OC)c2CC1

>  <EC50>
> 200 µM

$$$$
>  <compound>
CC1=NNC(=S)NCCCN2CCN(CCCNC(=S)NN=C(C)C=NNC(=S)NCCCN3CCN(CCCNC(=S)NN=C1)CC3)CC2

>  <EC50>
> 123 µM

$$$$
>  <compound>
O=c1[nH]c(=O)n(C2CC(O)C(CO)O2)cc1NN=NCc1ccccc1 (configuration not stated)

>  <EC50>
> 200 µM

$$$$
>  <compound>
CC(=O)OCC(OC(C)=O)C(OC(C)=O)C(C=NN(C(C)=O)S(=O)(=O)c1ccc(/C=C2\NC(=O)NC2=O)cc1)OC(C)=O (configuration not stated)

>  <EC50>
> 200 µM

$$$$
>  <compound>
CC1SC2=NC3=C(c4ccccc4C3=O)C(c3ccccc3Cl)N2C1=O (configuration not stated)

>  <EC50>
> 35.5 µM

$$$$
>  <compound>
Cc1coc2c1C(=O)C(=O)c1c-2ccc2c1CCCC2(C)C

>  <EC50>
> 200 µM

$$$$
>  <compound>
O=S(=O)(O)CCO

>  <EC50>
> 200 µM

$$$$
>  <compound>
O=c1cnn2c(n1)sc1ccc3ccccc3c12

>  <EC50>
> 50.1 µM

$$$$
>  <compound>
CC/C(=C(\C#N)c1ccc(F)cc1)c1ccc(OCCN(CC)CC)cc1

>  <EC50>
> 200 µM

$$$$
>  <compound>
c1ccc2nc3c(cc2c1)[nH]c1ccccc13

>  <EC50>
> 339 µM

$$$$
>  <compound>
CSc1nc2[nH]c(=O)n(OS(=O)(=O)c3ccccc3)c(=O)c2n1Cc1ccccc1

>  <EC50>
> 200 µM

$$$$
>  <compound>
CCCN1CN(C(C(=O)N[C@@H]2C(=O)N3C2SC(C)(C)C3C(=O)O)c2ccc(O)cc2)CSC1=S (some centres not stated)

>  <EC50>
> 479 µM

$$$$
>  <compound>
COC(=O)[C@H](Cc1ccccc1)NC(=O)/C(=C/C(C)C)NC(=O)[C@H](CCSC)NC=O

>  <EC50>
> 550 µM

$$$$
>  <compound>
COC(=O)C(Cc1ccccc1OC)NC(=O)C(CC(=O)OCc1ccccc1)NC(=O)OCc1ccccc1 (configuration not stated) (Cbz-Asp(OBn)-[Phe(2-OMe)]-OMe; configuration not given here)

>  <EC50>
> 200 µM

$$$$
>  <compound>
Cc1ccc(SSc2ccc(C(C)(C)C)cc2)cc1

>  <EC50>
> 200 µM

$$$$
>  <compound>
Nc1ncnc2c1ncn2C1CCC(=O)C1 (configuration not stated)

>  <EC50>
> 1150 µM

$$$$
>  <compound>
CC(C)(C)N1C(=O)N=[N+](/C(=C(\c2ccccc2)n2nc([O-])n(C(C)(C)C)c2=O)c2ccccc2)C1=O

>  <EC50>
> 100 µM

$$$$
>  <compound>
O=C(CC(c1ccccc1)C(C(=O)c1ccncc1)C(CC(=O)c1ccncc1)c1ccccc1)c1ccncc1 (configuration not stated)

>  <EC50>
> 200 µM

$$$$
>  <compound>
C[C@H]1S[C@H](c2c(F)cccc2F)n2c1nc1ccccc12

>  <EC50>
> 200 µM

$$$$
>  <compound>
O=C(O)c1nc(Cl)c(Cl)[nH]c1=O

>  <EC50>
> 200 µM

$$$$
>  <compound>
COC(=O)/C=C\C(C#N)(C#N)N=Cc1ccsc1

>  <EC50>
> 2 µM

$$$$
>  <compound>
COc1ccc(Br)cc1-c1cc(Br)ccc1OC

>  <EC50>
> 200 µM

$$$$
>  <compound>
CC1OC2(CC(OCc3ccccc3)C1OCc1ccccc1)OCCO2 (configuration not stated)

>  <EC50>
> 200 µM

$$$$
>  <compound>
C[S+]1CC2C3CC(C#N)C(C3)C2C1 (configuration not stated)

>  <EC50>
> 275 µM

$$$$
>  <compound>
CN(C)C1C(CO)OC(n2cnc3c(N)ncnc32)C1O (configuration not stated)

>  <EC50>
> 200 µM

$$$$
>  <compound>
CC(C)(C)OC(=O)c1ccc(NCC2=CC(=O)C=CC2=O)cc1

>  <EC50>
> 200 µM

$$$$
>  <compound>
CCN(CC)CCOC(=O)c1c(C)oc2cc3c(C(=O)OCCN(CC)CC)c(C)oc3cc12

>  <EC50>
> 200 µM

$$$$
>  <compound>
Cc1c(-c2ccccc2)cc(O)c2nc3ccccc3n12

>  <EC50>
> 200 µM

$$$$
>  <compound>
O=[N+]([O-])c1ccc2cnn(CN3CCCCC3)c2c1

>  <EC50>
> 200 µM

$$$$
>  <compound>
CC(=O)Oc1cc2c(c(=O)n1C)C(C)N(C)C2=O (configuration not stated)

>  <EC50>
53.7 µM

$$$$
>  <compound>
NC1=NS(=O)(=O)Nc2nc[nH]c21

>  <EC50>
> 1320 µM

$$$$
>  <compound>
COC1/C=C/OC2(C)Oc3c(C)c(O)c4c(O)c(cc(OCC(=O)N5CCOCC5C)c4c3C2=O)NC(=O)/C(C)=C/C=C/C(C)C(O)C(C)C(O)C(C)C(OC(C)=O)C1C (configuration not stated)

>  <EC50>
> 200 µM

$$$$
>  <compound>
O=c1ccn(CC2(CO)CC(Cc3ccccc3)C2)c(=O)[nH]1 (configuration not stated)

>  <EC50>
> 200 µM

$$$$
>  <compound>
CCOC(=O)c1nc2cc(F)cc(F)c2[nH]c1=O

>  <EC50>
> 200 µM

$$$$
>  <compound>
O=C1c2ccccc2-c2oc(=O)c3ccccc3c21

>  <EC50>
> 40.7 µM

$$$$
>  <compound>
Cc1ccc2c(c1)[nH]c(=S)n2C=C1C(=O)NC(=O)NC1=O

>  <EC50>
> 100 µM

$$$$
>  <compound>
O=C(Nc1cccc(C(F)(F)F)c1)c1cc(-c2ccccc2)nc(=S)[nH]1

>  <EC50>
> 661 µM

$$$$
>  <compound>
Cn1c(=O)cc(NNc2ccccc2)[nH]c1=O

>  <EC50>
> 200 µM

$$$$
>  <compound>
CC1(C)CC23CC(C)(C)c4cccc(c42)OCc2ccc4ccc5ccc(nc5c4n2)COc2cccc1c23

>  <EC50>
> 50.1 µM

$$$$
>  <compound>
COC(=O)CCC12CCC(O1)c1ccccc12 (configuration not stated)

>  <EC50>
> 200 µM

$$$$
>  <compound>
CC1OC(Oc2ccc3c(=O)c(-c4ccc(O)cc4)coc3c2)C(O)C(O)C1O (configuration not stated)

>  <EC50>
> 200 µM

$$$$
